System: Rattus norvegicus
methodDescription: Drug level in Sprague-Dawley rat liver at 300 umol/kg, sc after 0.5 hrs
Format: ADME, organism-based
measurementConditions: in vivo

[
  {
    "smilesNotation": "COc1ccc(O)c(C2=N[C@@H](C(=O)O)CS2)c1",
    "readoutUnits": "nmol/g",
    "Drug uptake": 564
  },
  {
    "smilesNotation": "COc1ccc(O)c(C2=N[C@@](C)(C(=O)O)CS2)c1",
    "readoutUnits": "nmol/g",
    "Drug uptake": 382
  },
  {
    "smilesNotation": "COc1ccc(C2=N[C@@](C)(C(=O)O)CS2)c(O)c1OC",
    "readoutUnits": "nmol/g",
    "Drug uptake": 924
  },
  {
    "smilesNotation": "C[C@]1(C(=O)O)CSC(c2ccc(O)cc2O)=N1",
    "readoutUnits": "nmol/g",
    "Drug uptake": 124
  }
]
